experimental.target: SARS-CoV-2 S on pseudovirions (Wuhan Hu-1 / IL1/2020, last 18 amino acids removed) (SARS-CoV-2, UniProt P0DTC2 14-1273)
protocol.text: cell-based or functional assay
// reported Mean IC50, pSV neutralization for each item listed

{"columns": ["binder", "reading.unit", "reading.qualifier", "Mean IC50, pSV neutralization"],
 "data": [
  ["COV_2035 (antibody, V domains shown, human IgG1) VH: QVQLVQSGAEVKKPGASVKVSCKVSGYTLPELSIHWVRQAPGKGLEWLGGFDPEDGKIIYAQKFQGRVTMTEDTSTDTAYMELSSLRSEDTAVYYCATSPAVVERGWFDPWGQGTLVTVSS VL: QSALTQPPSASGSPGQSVTISCTGTSSDVGGYNYVSWYQQHPGKAPKLMIYEVSKRPSGVPDRFSGSKSGNMASLTVSGLQAEDEANYYCSSYAGSKRVFGGGTKLTVL", "µg/ml", "=", 0.04],
  ["COV_2196 (antibody, V domains shown, human IgG1) VH: QVQLVQSGAEVKKPGASVKVSCKVSGYTLIELSMHWVRQAPGKGLEWMGGFDPEDAKTIYAQKFQGRVTMTEDTSTDTAYMELSSLTFEDTAVYYCATTPAFMAAAGDFDYWGQGTLVTVSS VL: QPVLTQPSSVSVSPGQTATITCSGDVLAKKYARWFQQKPGQAPMLVIYKDTERPSGIPERFSGSSSGTTVTLTINGAQVEDEADYYCYSAAAWVFGGGTKLTVL", "µg/ml", "=", 0.02],
  ["COV_1050 (antibody, V domains shown, human IgG1) VH: QVQLVESGGGVVQPGRSLRLSCAASRFTFSSYAMHWVRQAPGKGLEWVAVISFDGSNKYYADSVKGRFTIFRDNSKNTLSLQMNSLRTEDTAMYYCASPAGYYESLWGQGTLVTVSS VL: SYELTQPPSVSVSPGQTARVTCSGDALSKQYGFWYQQKPGQAPTLVIYKDTERPSGIPERFSGSGSGTTVTLTISGVQAEDEADYYCQSTDNSGRWVFGGGTKLTVLG", "µg/ml", "≥", 25],
  ["COV_2025 (antibody, V domains shown, human IgG1) VH: QVHLVQSGAEVKKPGASVKVSCKVSGYTLVELSVHWVRQAPAKGLEWIGGFDPEDGETIYAQKFQGRVTMTEDTSTDTAYMELTNLRSEDTAVYYCVTSQPFVSPNWFDPWGQGTLVTVSS VL: QSALTQPASVSGSPGQSITISCTGTSRDVGAYNYVSWYQQHPGKAPKLMIYEVTTRPSGVSNRFSGSKSGNTASLTISGLQAEDEADYYCSSYTGSRTLVFGTGTKVTVL", "µg/ml", "=", 0.02],
  ["COV_2014 (antibody, V domains shown, human IgG1) VH: QVQLVQSGAEVKKPGASVKVSCKVSGYTLTELSMHWVRQAPGKGLEWMGGFDPEDGETIYAQKFQGRVTMTEDTSTDTAYMELSSLRSEDTAVYYCATGKINYYDSSGYYGTFDYWGQGTLVTVSS VL: AIQLTQSPSSLSASVGDRVTITCRASQGISSYLAWYQQKPGKAPKLLIYAASTLQSGVPSRFSGSGSGTDFTLTISSLQPEDFATYYCQQLNSYHLTFGQGTRLEIK", "µg/ml", "≥", 25]
]}
